We begin with a simple list: items and their reported TGI.
System: KM12 colon
Experiment: NCI tumour cell line growth inhibition, 48 h

Molecule: COc1ccc(C2c3cc4c(cc3C(O)C3CCC(=O)N23)OCO4)cc1 (stereo not given)
Target under test: KM12 colon
Bound sign: >
TGI / µM: 100
--
Molecule: CCN(CC)c1ccc(/C=C/c2cc(C)c3ccccc3n2)cc1
Target under test: KM12 colon
Bound sign: =
TGI / µM: 13.2
--
Molecule: N=C(N)c1nn(C2OC(CO)C(O)C2O)c2nc[nH]c(=O)c12 (stereo not given)
Target under test: KM12 colon
Bound sign: =
TGI / µM: 1.46
--
Molecule: Nc1ccn(C2CC(O)C(COP(O)(=S)OC3CC(n4ccc(N)nc4=O)OC3CO)O2)c(=O)n1 (stereo not given)
Target under test: KM12 colon
Bound sign: >
TGI / µM: 100
--
Molecule: CCn1c(-c2nonc2N)nc2cncc(C(=O)N3CCNCC3)c21
Target under test: KM12 colon
Bound sign: >
TGI / µM: 25
